Test system: SF-295 CNS
procedure-text: NCI tumour cell line growth inhibition, 48 h
test-readout: TGI

Nc1nc2ccc(Sc3ccc4nc(N)[nH]c(=O)c4c3)cc2c(=O)[nH]1    > 100 µM

[in] Could you share which TGI value was measured for COC(=O)c1cc(=O)nc2cc3cccccc3n12 ?
[out] > 100 µM

[in] Could you share which TGI value was measured for C=C1C[C@@H](O)[C@@H](Br)C(C)(C)[C@@]12C=CC(=O)CC2 ?
[out] > 100 µM

[in] Could you share which TGI value was measured for CCCN(CCC)c1ccc(C=O)c(Cl)c1 ?
[out] 29.2 µM

[in] Could you share which TGI value was measured for ClCc1cccc(Cn2cnc3c(Cl)nc(Cl)nc32)c1 ?
[out] 17.1 µM

[in] Could you share which TGI value was measured for Nc1ccc(-c2nc3ccc(F)cc3s2)cc1Cl ?
[out] > 89.2 µM

[in] Could you share which TGI value was measured for CCOC(=O)C1Cc2ccc3c4c(ccc(c24)C1)CC(C(=O)OCC)C3 ?
[out] > 100 µM

[in] Could you share which TGI value was measured for CN/N=C(/c1nc2ccc([N+](=O)[O-])cc2[nH]c1=O)C(O)c1ccc(C(O)/C(=N\NC)c2nc3ccc([N+](=O)[O-])cc3[nH]c2=O)cc1 (configuration not stated) ?
[out] > 100 µM

[in] Could you share which TGI value was measured for Nc1[nH]c(=O)nc2snnc12 ?
[out] > 100 µM

[in] Could you share which TGI value was measured for Cc1ccc(Cl)cc1N=NC(=O)NNc1cc(Cl)ccc1C ?
[out] > 100 µM

[in] Could you share which TGI value was measured for CC12CCCCC1=C(F)C(F)(F)S2 (configuration not stated) ?
[out] > 71.4 µM

[in] Could you share which TGI value was measured for CC1(C)COC2C(N(Cc3ccccc3)Cc3ccccc3)C(=O)N21 (configuration not stated) ?
[out] 88.8 µM

The reported measurements were obtained from PubChem BioAssay (NCI).
